- EXPERIMENTAL_TARGET: T1, human BCMA on BCMA expressing cell lines (human, UniProt Q02223 1-184)
- T1 sequence: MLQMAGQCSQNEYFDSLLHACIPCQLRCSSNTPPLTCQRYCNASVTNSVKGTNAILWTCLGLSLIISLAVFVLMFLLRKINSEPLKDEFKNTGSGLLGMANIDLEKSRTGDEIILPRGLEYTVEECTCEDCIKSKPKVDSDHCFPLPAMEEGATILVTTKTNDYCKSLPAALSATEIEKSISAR
- MEASUREMENT_NOTES: cell-based or functional assay
So I've got a bunch of binders here, and I need their TDCC Jeko1 EC50 values.
Express the reported value numerically, then name its unit.

BCMA targeting trispecific protein 02F04 (other, not shown: large carriers; small tags and cut ends, trispecific; also called 02F04 TriTAC) VHH: EVQLVESGGGLVQPGRSLTLSCAASTNIFSSSPMGWYRQAPGKQRELVAAIHGFSTLYADSVKGRFTISRDNAKNSIYLQMNSLRPEDTALYYCNKVPWGDYHPGNVYWGQGTQVTVSS | 10 pM

The record that follows has no TDCC Jeko1 EC50 shown yet.
Prompt line: // TDCC Jeko1 EC50 lookup, key: BCMA targeting trispecific protein 01F07 (other, not shown: large carriers; small tags and cut ends, trispecific; also called 01F07 TriTAC) VHH: EVQLVESGGGLVQPGRSLTLSCAASTNIFSTSPMGWYRQAPGKQRELVAAIHGFSTIYADSVKGRFTISRDNAKNSIYLQMNSLRPEDTALYYCNKVPWGDYHPGNVYWGQGTQVTVSS
Response line: 5.3 pM
